Listing: MIC of selected compounds
Test system: Penicillium sp.
Assay: Antifungal activity against Penicillium sp. after 48 hr by microdilution method
Assay type: functional
Note: unit µg/mL is implicit; provide only the numeric part.

Some compounds with recorded MIC:
- compound: "CCc1ccc(CCOc2ccc(C3=NOC(Cc4ccc(OC)c(OC)c4)C3)cc2)nc1 (stereo not drawn)"
  observed_measurement: 12
- compound: "CCc1ccc(CCOc2ccc(C3=NOC(C(=O)OC)C3)cc2)nc1 (stereo not drawn)"
  observed_measurement: 24

Could you now consider this next compound?
[in] Report MIC for CCc1ccc(CCOc2ccc(C3=NOC(CO)C3)cc2)nc1 (stereo not drawn)
[out] 9
